experiment: Terminal half life in Sprague-Dawley rat at 2 mg/kg, iv by LC-MS/MS analysis; format: ADME, organism-based; conditions: in vivo, read-out: beta t1/2 (converted)
MEASUREMENT LABEL: half-life (min)

1) CN1Cc2nn(Cc3cccc(-c4cccc(C(N)=O)c4)c3)c(-c3ccccc3F)c2C1; 29.4

###

assay: AUC (0 to infinity) in Sprague-Dawley rat at 0.75 mg/kg, iv measured up to 24 hrs; type: ADME, organism-based; parameters: dose 0.75 mg/kg, time < 24 hrs, route iv; details: in vivo
MEASUREMENT LABEL: AUC(0-inf)

1. CNCc1cc(-c2ccccc2F)n(S(=O)(=O)c2cccnc2)c1; 99 ng·h/mL

###

assay: Oral bioavailability in Sprague-Dawley rat at 8 mg/kg by LC-MS/MS analysis; type: ADME, organism-based; conditions: in vivo
MEASUREMENT LABEL: bioavailability (%)

1. CN1Cc2nn(Cc3cccc(-c4cccc(C(N)=O)c4)c3)c(-c3ccccc3F)c2C1; 16.4

###

experiment: Elimination half life in Sprague-Dawley rat at 8 mg/kg, po by LC-MS/MS analysis; format: ADME, organism-based; settings: in vivo, read-out: beta t1/2 (converted)
MEASUREMENT LABEL: half-life (min)

1. CN1Cc2nn(Cc3cccc(-c4cccc(C(N)=O)c4)c3)c(-c3ccccc3F)c2C1; 48

###

experiment: Cmax in Sprague-Dawley rat at 2 mg/kg, po; format: ADME, organism-based; design: dose 2 mg/kg, route po; conditions: in vivo
MEASUREMENT LABEL: Cmax (ng/mL)

1. CNCc1cc(-c2ccccc2F)n(S(=O)(=O)c2cccnc2)c1 [VONOPRAZAN]; 17

###

experiment: Inhibition of rabbit stomach K+ stimulated H(+)/K(+) ATPase activity incubated for 30 mins in presence of ATP and KCl by malachite green reagent based assay; format: tissue-based, Oryctolagus cuniculus
Listing of recorded log10(IC50) by entry.
MEASUREMENT LABEL: log10(IC50) (log10 of the value in nM)

1) CN1Cc2nn(Cc3ccsc3)c(-c3ccccc3F)c2C1; 3.33
2) CN1Cc2nn(Cc3cccc(-c4cccc(C(N)=O)c4)c3)c(-c3ccccc3F)c2C1; 1.78
3) CN1Cc2nn(Cc3cc4ccccc4o3)c(-c3ccccc3F)c2C1; 3.63
4) CN1Cc2nn(Cc3cccc(O)c3)c(-c3ccccc3F)c2C1; 1.89
5) CN1Cc2nn(Cc3cccc(O)c3)c(-c3cccnc3)c2C1; 3.62
6) CN1Cc2nn(Cc3ccccc3)c(-c3ccccc3F)c2C1; 2.94
7) CN1Cc2nn(Cc3cccc(N)c3)c(-c3ccccc3F)c2C1; 2.95
8) CN1Cc2nn(Cc3cccc(O)c3)c(-c3ccccc3)c2C1; 3.27
9) CN1Cc2nn(Cc3cccc(-c4cccc(S(C)(=O)=O)c4)c3)c(-c3ccccc3F)c2C1; 2.11

###

assay: Inhibition of rabbit stomach K+ stimulated H(+)/K(+) ATPase activity incubated for 30 mins in presence of ATP and KCl by malachite green reagent based assay; assay type: tissue-based, Oryctolagus cuniculus
log10 IC50 values for the compounds below.
MEASUREMENT LABEL: log10 IC50 (log10 of the value in µM)

1) CN1Cc2nn(Cc3cccc(-c4cccc(F)c4)c3)c(-c3ccccc3F)c2C1; -0.48
2) CN1Cc2nn(Cc3ccccc3F)c(-c3ccccc3F)c2C1; -0.09
3) CN1Cc2nn(S(=O)(=O)c3cccnc3)c(-c3ccccc3F)c2C1; 0.04
4) CN1Cc2nn(Cc3cccc(OCCC(N)=O)c3)c(-c3ccccc3F)c2C1; -0.41
5) CN1Cc2nn(Cc3cccc(OCCC(=O)O)c3)c(-c3ccccc3F)c2C1; 0.26
6) CN1Cc2nn(Cc3cccc(-c4cccc(N(C)C)c4)c3)c(-c3ccccc3F)c2C1; -0.50
7) CN1Cc2nn(Cc3cccc(Cl)c3)c(-c3ccccc3F)c2C1; -0.45
8) CN1Cc2nn(Cc3cccc(O)c3)c(-c3ccccc3Cl)c2C1; -0.98
9) CN1Cc2nn(Cc3cccnc3)c(-c3ccccc3F)c2C1; -0.17
10) Cc1ccccc1-c1c2c(nn1Cc1cccc(O)c1)CN(C)C2; -1.01
11) CN1Cc2nn(Cc3cccc(O)c3)c(-c3ccc(O)cc3)c2C1; 0.55
12) Cc1ccc(-c2c3c(nn2Cc2cccc(O)c2)CN(C)C3)c(F)c1; -0.38
13) CN1Cc2nn(Cc3cccc(-c4cccc(C(F)(F)F)c4)c3)c(-c3ccccc3F)c2C1; -0.36

###

assay: Inhibition of rabbit stomach K+ stimulated H(+)/K(+) ATPase activity incubated for 30 mins in presence of ATP and KCl by malachite green reagent based assay; format: tissue-based, Oryctolagus cuniculus
pIC50: −log10 of the molar value.
Classify as follows. Reported pIC50 greater than or equal to 6: Yes. Reported pIC50 below: No.

1. COc1cccc(Cn2nc3c(c2-c2ccccc2F)CN(C)C3)c1; Yes
2. CN1Cc2nn(Cc3ccc(F)cc3)c(-c3ccccc3F)c2C1; Yes
3. CN1Cc2nn(Cc3cccc(F)c3)c(-c3ccccc3F)c2C1; Yes
4. CNCc1cc(-c2ccccc2F)n(S(=O)(=O)c2cccnc2)c1 [VONOPRAZAN]; Yes
5. CN1Cc2cc(S(=O)(=O)c3ccccc3)n(-c3ccccc3F)c2C1; No
6. CN1Cc2nn(Cc3cccc(O)c3)c(-c3cccnc3F)c2C1; Yes

###

assay: AUC (0 to infinity) in Sprague-Dawley rat at 2 mg/kg, iv by LC-MS/MS analysis; format: ADME, organism-based; design: time infinity, dose 2 mg/kg, route iv; conditions: in vivo
MEASUREMENT LABEL: AUC(0-inf) (ng·h/mL)

1. CN1Cc2nn(Cc3cccc(-c4cccc(C(N)=O)c4)c3)c(-c3ccccc3F)c2C1; 520
